System: UO-31 renal
assay notes: NCI-60 one-dose screen, 48 h (100 = growth as untreated, 0 = no growth, -100 = all killed)
measurement setup: 10 µM unless noted
The panel holds about 83,000 compounds, 20% with a hit somewhere; the sample as a whole holds those more often.
measurement name: growth (%)

# compound, study system, measurement name, experimental result
measured = [
    ("CCN(CC)CCNCC(O)Cc1ccc(OC)cc1 (centres undefined)", "UO-31 renal", "growth", 82.6),
    ("CC(Cc1cccc(C(F)(F)F)c1)NCCOC(=O)c1ccccc1 (centres undefined)", "UO-31 renal", "growth", 85.4),
    ("CCc1c(C)c2cc3c(c(C)c2oc1=O)OCC(=O)N3", "UO-31 renal", "growth", 37.3),
    ("CCCc1nn2c(CCC(=O)c3nc4ccc([N+](=O)[O-])cc4[nH]3)nnc2s1", "UO-31 renal", "growth", 80.7),
    ("FC(F)(F)c1cccc([Si](F)(c2cccc(C(F)(F)F)c2)c2cccc(C(F)(F)F)c2)c1", "UO-31 renal", "growth", 49),
    ("CC(C)(C)NC(C1=CC(C)(C)c2ccccc2C1=O)c1ccccc1 (centres undefined)", "UO-31 renal", "growth", -97.4),
    ("O=C(Nc1cccc(-n2ccc3c(NC(=O)c4ccccc4)nccc32)c1)c1cc(N2CCOCC2)cc(C(F)(F)F)c1", "UO-31 renal", "growth", 9.78),
    ("O=C(O)c1cn(C2CC2)c2cc(N3CCN(C(=O)CSc4nc(NS(=O)(=O)c5ccccc5)cc(=O)[nH]4)CC3)c(F)cc2c1=O", "UO-31 renal", "growth", 82),
    ("COc1ccc(-c2c(C#N)cnc(N)c2-c2nc3cc(C)c(C)cc3[nH]2)cc1", "UO-31 renal", "growth", 83.9),
]

---

Test system: SNB-75 CNS
assay notes: NCI-60 one-dose screen, 48 h (100 = growth as untreated, 0 = no growth, -100 = all killed)
measurement setup: 10 µM unless noted
The panel holds about 83,000 compounds, 20% with a hit somewhere; the sample as a whole holds those more often.

# molecule, growth / %
rows = [
    ("C=C1C(=O)O[C@H]2[C@H]1CC/C(CNC(=O)/C1=C/CC[C@@]3(C)O[C@H]3[C@H]3OC(=O)C(=C)[C@@H]3CC1)=C\\CC[C@@]1(C)O[C@@H]21", 86.3),
    ("CCN(CC)CCNC(=O)c1c(C)[nH]c(/C=C2\\C(=O)Nc3cc(NC(=O)NC(=O)c4ccc(OC)cc4F)ccc32)c1C", 94),
    ("Nc1nc2ccc(CNc3ccc(C(=O)NC(CC(=O)O)C(=O)O)cc3)cc2c(=O)[nH]1 (centres undefined)", 70.4),
    ("CC1=C[S+](c2ccccc2)c2cccc3cc4ccccc4c1c23 (centres undefined)", -91.1),
    ("CC(=O)Cc1cccnc1", 104),
    ("Cc1nccc2c3ccc(OCc4cn(Cc5ccc(Br)cc5)nn4)cc3n(CCCc3ccccc3)c12", 42.3),
    ("O=C(NCCNc1nccc(-c2c(-c3cccc(O)c3)nc3sccn23)n1)Nc1cc(C(F)(F)F)cc(C(F)(F)F)c1", 66.1),
    ("COc1ccccc1N1CCN(CC(O)COc2c(Br)c(Br)c(Br)c3c2OC(C)(C)C3)CC1 (centres undefined)", 71),
    ("CNCCCOc1c(Br)cc(CCNC(=O)/C(Cc2cc(Br)c(OC)c(Br)c2)=N/O)cc1Br", 8.28),
    ("CC/C(=C(\\CC)c1ccc(OCCN(CC)CC)cc1)c1ccc(OCCN(CC)CC)cc1", 39.1),
    ("CCC1S/C(=N\\N=C(/C)c2cc3ccccc3o2)N(c2ccccc2)C1=O (centres undefined)", 102),
    ("CCCCn1c(-c2cccc(OC)c2)nc2cc(OC)c(OC)cc2c1=O", 96.1),
    ("COc1ccc(-c2cc(-c3nnc(SC/C(=N\\O)c4ccccc4)n3-c3ccccc3)c3ccccc3n2)cc1", 100),
    ("COc1cccc(C2CC(c3cc(OC)c(OC)c(OC)c3)=NN2)c1 (centres undefined)", 74.4),
    ("COc1ccc(C(=O)NC(=O)Nc2ccc3c(c2)NC(=O)/C3=C\\c2[nH]c(C)c(C(=O)O)c2C)cc1", 73.7),
    ("Nc1ncc(-c2ccc3ncnc(Nc4cncc(Cl)c4)c3c2)cn1", 31.4),
    ("O=C(O)c1ccc(-n2cc(/C=N/Nc3ccccc3F)c(-c3ccc(O)cc3)n2)cc1", 82.8),
    ("Cc1cc(C)c(O)c(C(=O)CC(Br)C(=O)O)c1 (centres undefined)", 102),
    ("COc1ccc(/C=C2\\CS(=O)(=O)C/C(=C\\c3ccc(OC)cc3)C2=O)cc1", 60.2),
]

---

Test system: M14 melanoma
assay notes: NCI-60 one-dose screen, 48 h
measurement setup: 10 µM unless noted
The panel holds about 83,000 compounds, 20% with a hit somewhere; the sample as a whole holds those more often. Calls of active or inactive are those of the source. Rule for the calls: active = growth percent below 10; inactive = the rest.
Outcome codes: true (1) for active, false (0) for inactive

# compound, category
measured = [
    ("O=C(COc1ccc(Cl)cc1)N1CCN(Cc2ccc3c(c2)OCO3)CC1", "false (0)"),
    ("Cc1nccc2c3ccc(OCc4cn(Cc5ccc(Br)cc5)nn4)cc3n(CCCc3ccccc3)c12", "false (0)"),
    ("Nc1nc(-c2cc3c(cc2Cl)NC(=O)/C3=C/c2ccc(Cl)cc2)cs1", "false (0)"),
    ("S=C=NP1(N=C=S)=NP(N=C=S)(N=C=S)=NP(N=C=S)(N=C=S)=NP(N=C=S)(N=C=S)=N1 (stereo not given)", "false (0)"),
    ("Cc1ccc2c(c1)Nc1ccc(C)cc1C2(C)C", "false (0)"),
    ("Cc1ncc(CO)c(C(=O)O)c1O", "false (0)"),
    ("CCN(CC)CCC(C(=O)O)(c1ccccc1)c1ccccc1", "false (0)"),
    ("COc1ccc(/C=C/C(=O)c2ccc(Oc3ncnc4ccccc34)cc2)cc1OC", "false (0)"),
    ("O=C(Nc1ccc(-n2cc(-c3ccncc3)c(-c3ccc(O)c(Cl)c3)n2)cc1)c1ccc(Cl)c(C(F)(F)F)c1", "true (1)"),
    ("COc1ccc2c(c1)C(=O)/C(=C/c1cccc(OCC(=O)c3ccccc3)c1)O2", "false (0)"),
    ("COc1ccc(C(=O)NC(=O)Nc2ccc3c(c2)NC(=O)/C3=C\\c2[nH]c(C)c(C(=O)O)c2C)c(F)c1", "false (0)"),
    ("Cc1ccn2cc(Cc3cc(=O)oc4c3ccc3ccccc34)c(=O)nc2c1", "false (0)"),
    ("COc1ccc(-c2nn(-c3ccc(NC(=O)c4cc(Cl)cc(Cl)c4)cc3)cc2-c2ccncc2)cc1Cl", "false (0)"),
    ("O=C(Nc1ccccc1Cl)c1c[nH]c(=O)c(-c2ccc(N3CCCOC4(CC4)C3)cc2)c1", "false (0)"),
    ("CCOC(=O)C1=C(N)Oc2cc(OC)ccc2C1c1ccc(F)c(F)c1 (stereo not given)", "false (0)"),
    ("O=C(Nc1ccc(-n2ccc3c(NC(=O)c4ccccc4)ncnc32)cc1)Nc1ccc(Cl)c(C(F)(F)F)c1", "true (1)"),
    ("CCCCCC/C=N/Nc1ccc([N+](=O)[O-])cn1", "false (0)"),
    ("CCn1cc(/C=C2\\Oc3cc(OCC#N)ccc3C2=O)c2cc(OC)ccc21", "false (0)"),
    ("Nc1ncnc2c1ccn2-c1cccc(NC(=O)c2cccc(C(F)(F)F)c2)c1", "false (0)"),
    ("Cc1cc2c(cc1C)N(C(=O)CCl)CCN2C(=O)CCl", "true (1)"),
]

---

Test system: SK-MEL-28 melanoma
assay notes: NCI-60 one-dose screen, 48 h
measurement setup: 10 µM unless noted
Compounds without any hit were thinned out: in the full panel of roughly 83,000, 20% have a hit. Active and inactive are the calls of the source. The calls were made as follows: active = growth percent below 10; inactive = the rest.
Possible outcomes: T (active), F (inactive)

# molecule, category
rows = [
    ("C[C@]12CC[C@@H]3c4ccc(O)c(N)c4CC[C@H]3[C@@H]1CC[C@@H]2O", "F"),
    ("Nc1ncnc2c1c(C(F)(F)F)cn2[C@@H]1O[C@H](CO)[C@@H](O)[C@H]1O", "T"),
    ("C/C(=N\\N=C1/SCC(=O)N1c1ccccc1)c1ccco1", "F"),
    ("Cc1cc(NCCN(C(C)C)C(C)C)nc(/N=C(\\N)Nc2ccc(Cl)c(C(F)(F)F)c2)n1", "T"),
    ("COc1ccc(/C=N/C2=NNC(C)(c3ccccc3O)N2C(Cc2c[nH]c3ccccc23)C(=O)O)cc1 (centres undefined)", "F"),
    ("CC1(C)N=C(N)N=C(N)N1c1ccc(OCC(=O)Nc2ccccc2)c(Cl)c1", "F"),
    ("CC[C@H]1[C@@H]2C=C[C@@H]3[C@H]4C/C=C\\C(=O)NCCC[C@@H]5NC(=O)/C(=C(O)/C=C/[C@@H]4C[C@@H]3[C@H]2C[C@H]1C)C5=O", "F"),
    ("CC(C)NCC(O)COc1ccc(CC(N)=O)cc1 (centres undefined)", "F"),
    ("Cc1nccc2c3ccc(OCc4cn(Cc5ccc(Br)cc5)nn4)cc3n(CCCc3ccccc3)c12", "F"),
]
